# assay_system: T1, PSMA (commercial, Sino Bio cat #15877-H07H) (UniProt Q04609 44-750)
# T1 construct: also called receptor
# T1 sequence (Q04609 44-750 limits assumed): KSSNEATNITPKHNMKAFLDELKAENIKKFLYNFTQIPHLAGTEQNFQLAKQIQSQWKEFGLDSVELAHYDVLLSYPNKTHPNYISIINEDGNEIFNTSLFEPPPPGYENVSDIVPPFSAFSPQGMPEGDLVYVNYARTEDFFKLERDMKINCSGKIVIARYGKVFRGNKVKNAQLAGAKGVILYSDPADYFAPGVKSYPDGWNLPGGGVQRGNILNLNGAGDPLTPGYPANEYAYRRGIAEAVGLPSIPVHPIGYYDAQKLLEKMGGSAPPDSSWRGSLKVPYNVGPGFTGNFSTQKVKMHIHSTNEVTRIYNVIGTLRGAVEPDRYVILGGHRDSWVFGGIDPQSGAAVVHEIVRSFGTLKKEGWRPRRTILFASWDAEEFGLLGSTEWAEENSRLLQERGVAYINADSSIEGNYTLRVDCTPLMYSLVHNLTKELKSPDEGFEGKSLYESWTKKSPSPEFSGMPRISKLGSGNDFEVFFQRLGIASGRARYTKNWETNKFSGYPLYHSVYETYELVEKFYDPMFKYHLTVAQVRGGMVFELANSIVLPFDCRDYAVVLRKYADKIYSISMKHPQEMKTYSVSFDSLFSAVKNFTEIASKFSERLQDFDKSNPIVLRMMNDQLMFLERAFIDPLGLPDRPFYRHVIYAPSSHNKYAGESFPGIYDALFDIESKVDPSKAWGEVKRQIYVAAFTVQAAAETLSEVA
# assay_method_text: SDS-PAGE, overnight 37C, ~7:1 sdAb:PSMA
metric: crosslinking efficiency

>>> result("C1-30FSY (VHH, not fully specified; FSY at 30, plus C-terminal His6) VHH: QVQLQESGGGSVQAGGSLRLSCTAPGYTDXNYYMSWFRQAPGKEREWVAGVNTGRGSTSYADSVKGRFTISQDNAKNTMFLQMNSLKPEDTAIYYCAVAACHFCDSLPKTQDEYILWGQGTQVTVSS")
"> 50%"
>>> result("C1-108FSY (VHH, not fully specified; FSY at 108, plus C-terminal His6) VHH: QVQLQESGGGSVQAGGSLRLSCTAPGYTDSNYYMSWFRQAPGKEREWVAGVNTGRGSTSYADSVKGRFTISQDNAKNTMFLQMNSLKPEDTAIYYCAVAACHFCDSLXKTQDEYILWGQGTQVTVSS")
"< 50%"
>>> result("C1-114FSY (VHH, not fully specified; FSY at 114, plus C-terminal His6) VHH: QVQLQESGGGSVQAGGSLRLSCTAPGYTDSNYYMSWFRQAPGKEREWVAGVNTGRGSTSYADSVKGRFTISQDNAKNTMFLQMNSLKPEDTAIYYCAVAACHFCDSLPKTQDEXILWGQGTQVTVSS")
"< 50%"
>>> result("C1-26FSY (VHH, not fully specified; FSY at 26, plus C-terminal His6) VHH: QVQLQESGGGSVQAGGSLRLSCTAPXYTDSNYYMSWFRQAPGKEREWVAGVNTGRGSTSYADSVKGRFTISQDNAKNTMFLQMNSLKPEDTAIYYCAVAACHFCDSLPKTQDEYILWGQGTQVTVSS")
"< 50%"
